# System: IL-2
# Assay Overview: IL-2 release from Jurkat cells (PMA and ionomycin, ELISA)
# Assay type: cell-based, human
# Cond: Homo sapiens, Jurkat; Table III, 'the foregoing assay' of Example 2
Reported Property: IC50

Past entries and their recorded results:
- Compound: "O=C1CCC(CCc2ccccc2)O1 (stereo not drawn)"
  Val: "> 50 µM"
- Compound: "COC(=O)/C=C/C=C/C=C/c1c(-c2ccc(F)cc2)c2ccccc2n1C(C)C [drawing 85]"
  Val: "3 µM"

Consider now this further compound.
Name the recorded IC50 for O=C1CCCC(CCc2ccccc2)O1 (stereo not drawn) . > 50 µM

###

# System: IL-2
# Assay Overview: IL-2 release from Jurkat cells (PMA and ionomycin, ELISA)
# Assay type: cell-based, human
# Cond: Homo sapiens, Jurkat; Table III, 'the foregoing assay' of Example 2
pIC50: −log10 of the molar value.
Reported Property: pIC50

Past entries and their recorded results:
- Molecule: "O=C1C=CC(CCc2ccccc2)O1 (stereo not shown)"
  pIC50: 4.82
- Molecule: "O=C1C[C@@H](O)C[C@H](CCc2ccccc2)O1"
  pIC50: 3.82

(P) O=C1C[C@H](O)C[C@H](CCc2ccccc2)O1
(Q) O=C1C=CCC(CCc2ccccc2)O1 (stereo not shown)
Which entry shows the lesser value of pIC50 here, P or Q ? // respond with label for picked entry P

###

# System: IL-2
# Assay Overview: IL-2 release from Jurkat cells (PMA and ionomycin, ELISA)
# Format: cell-based, human
# Cond: Homo sapiens, Jurkat; Table III, 'the foregoing assay' of Example 2
pIC50: −log10 of the molar value.
Reported Property: pIC50

Name the recorded pIC50 for CCOC(=O)/C=C/C=C/C=C/c1ccccc1 . 4.92 to 5.40

Input CCOC(=O)/C=C/C=C/CCc1ccccc1 4.40 to 4.92

Input O=C1C=C(CCc2ccccc2)CO1 < 4.30
